Just for reference, patent US20100150834A1 is where these values come from.

What % Binding was measured for each of the following?
Target: EphB1 (receptor of Table 1)
Test: EphB receptor specificity panel (% binding)
Numbers only, in %.

# BINDER, VALUE_MEASURED
rows = [
    ("EFFTWRPTYYGI (Panned on EphB4) [EFFTWRPTYYGI peptide (SEQ ID NO:23)]", 16),
    ("TTLSQLPKSTWL (Panned on EphB1) [TTLSQLPKSTWL peptide (SEQ ID NO:2)]", 100),
    ("GPVERAWRPDLI (Panned on EphB4) [GPVERAWRPDLI peptide (SEQ ID NO:30)]", 1),
    ("NHWPTQPYAIPI (Panned on EphB2) [NHWPTQPYAIPI peptide (SEQ ID NO:15)]", 18),
    ("DALNDWLLFRPW (Panned on EphB4) [DALNDWLLFRPW peptide (SEQ ID NO:20)]", 0),
    ("SHVGPIMRAWAP (Panned on EphB4) [SHVGPIMRAWAP peptide (SEQ ID NO:28)]", 22),
    ("AHTFPYPHPKPH (Panned on EphB1) [AHTFPYPHPKPH peptide (SEQ ID NO:3)]", 100),
    ("TYFDFQAWSIRA (Panned on EphB4) [TYFDFQAWSIRA peptide (SEQ ID NO:22)]", 10),
    ("SHWPISPYSLLS (Panned on EphB2) [SHWPISPYSLLS peptide (SEQ ID NO:14)]", 39),
    ("FSPQGPAARNFA (Panned on EphB4) [FSPQGPAARNFA peptide (SEQ ID NO:25)]", 13),
]

// for each binder in input: emit % Binding
1. SHKFPGPPSWMS (Panned on EphB1) [SHKFPGPPSWMS peptide (SEQ ID NO:4)]
2. DHNHNLYNPWRL (Panned on EphB4) [DHNHNLYNPWRL peptide (SEQ ID NO:21)]
3. WPPHWPRSLDYA (Panned on EphB2) [WPPHWPRSLDYA peptide (SEQ ID NO:17)]

[88, 9, 0]

// for each binder in input: emit % Binding
1. GPVSKAWQETET (Panned on EphB4) [GPVSKAWQETET peptide (SEQ ID NO:31)]
2. GPVHRAWEPTSH (Panned on EphB4) [GPVHRAWEPTSH peptide (SEQ ID NO:29)]
3. IHWPVAPYSYLD (Panned on EphB2) [IHWPVAPYSYLD peptide (SEQ ID NO:11)]
4. EWYMKFPPEHYF (Panned on EphB4) [EWYMKFPPEHYF peptide (SEQ ID NO:19)]
5. WGIPRAAQVMWT (Panned on EphB4) [WGIPRAAQVMWT peptide (SEQ ID NO:33)]
6. DHWRVSPYSLLY (Panned on EphB2) [DHWRVSPYSLLY peptide (SEQ ID NO:13)]
7. DHWYYTPWQPIE (Panned on EphB2) [DHWYYTPWQPIE peptide (SEQ ID NO:9)]

[13, 4, 97, 22, 16, 100, 100]

// for each binder in input: emit % Binding
1. DHWRILPFSLSS (Panned on EphB2) [DHWRILPFSLSS peptide (SEQ ID NO:10)]
2. WHWTIEPFAITS (Panned on EphB2) [WHWTIEPFAITS peptide (SEQ ID NO:8)]

1: 53; 2: 99
